Value source: the supplement of paper PMC7877785

Below: a set of entries, each annotated with reported self-splicing fitness (ln).
METHOD_SUMMARY: self-splicing fitness, log relative to wild type (ln ratio); higher = more splicing; Tetrahymena group I intron in knt gene, E. coli kanamycin selection, DiMSum; sequences stand for … in CUCUCU…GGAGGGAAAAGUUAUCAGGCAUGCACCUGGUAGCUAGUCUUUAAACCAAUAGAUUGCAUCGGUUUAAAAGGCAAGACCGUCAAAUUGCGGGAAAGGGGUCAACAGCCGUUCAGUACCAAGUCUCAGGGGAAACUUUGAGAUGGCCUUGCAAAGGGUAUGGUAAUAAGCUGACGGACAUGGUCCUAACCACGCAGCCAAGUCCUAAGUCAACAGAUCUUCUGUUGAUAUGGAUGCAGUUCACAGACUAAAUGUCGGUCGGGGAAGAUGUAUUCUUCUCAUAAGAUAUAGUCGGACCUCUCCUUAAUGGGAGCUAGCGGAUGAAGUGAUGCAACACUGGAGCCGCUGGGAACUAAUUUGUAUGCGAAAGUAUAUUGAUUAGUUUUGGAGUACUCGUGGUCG;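 note: selection with 25 µg/mL kanamycin versus none on LB agar overnight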
APPLIED_CONDITIONS: 37 °C
# answer = number (no unit)

POLYMER_SEQUENCE | self-splicing fitness (ln)
CUUAAGCAAUAUUACGGCAU | -3.67
AUUCAGCAAUAUUACGGCAA | 0.292
CGGCAGCAAUAUUACGAAUG | -0.00804
UUCAAGCAAUAUUACGCAUC | -1.81
UUGUAGCAAUAUUACGAGGG | -1.87

Input: Fill in: self-splicing fitness (ln) of UCGGAGCAAUAUUACGACGC is ___
Output: -0.73

* * *

METHOD_SUMMARY: self-splicing fitness, log relative to wild type (ln ratio); higher = more splicing; Tetrahymena group I intron in knt gene, E. coli kanamycin selection, DiMSum; sequences stand for … in CUCUCU…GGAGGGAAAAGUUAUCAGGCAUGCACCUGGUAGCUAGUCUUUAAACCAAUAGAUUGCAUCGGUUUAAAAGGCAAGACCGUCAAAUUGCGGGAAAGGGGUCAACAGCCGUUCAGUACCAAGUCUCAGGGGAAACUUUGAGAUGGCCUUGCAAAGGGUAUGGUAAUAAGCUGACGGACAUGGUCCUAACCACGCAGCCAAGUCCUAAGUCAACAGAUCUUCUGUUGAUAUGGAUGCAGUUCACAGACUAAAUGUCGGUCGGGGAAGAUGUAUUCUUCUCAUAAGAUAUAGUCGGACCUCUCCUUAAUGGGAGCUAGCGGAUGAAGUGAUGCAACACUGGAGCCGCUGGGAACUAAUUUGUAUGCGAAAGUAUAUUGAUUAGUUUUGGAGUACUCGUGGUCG
APPLIED_CONDITIONS: 30 °C
Below: a set of entries, each annotated with reported self-splicing fitness (ln).
# answer = number (no unit)

Completed entries (count: 6):
POLYMER_SEQUENCE | self-splicing fitness (ln)
UGGGAGCAAUAUUACGUCCC | -3.01
CCUGAGCAAUAUUACGUCUA | -2.86
ACAUAGCAAUAUUACGACGU | 0.079
CGGUAGCAAUAUUACGCGGA | -2.54
CAGCAGCAAUAUUACGAAGU | -2.46
ACUGAGCAAUAUUACGACAG | -0.882

Input: Fill in: self-splicing fitness (ln) of UGAUAGCAAUAUUACGAGGU is ___
Output: -3.79

Input: Now give it for GCAUAGCAAUAUUACGUGAG too.
Output: -0.159

Input: Now give it for GCGCAGCAAUAUUACGUCCC too.
Output: -1.14
